protocol_text: Acute toxicity in KM mouse assessed as survival rate at 468.8 mg/kg, ip measured up to 14 days
Assay type: organism-based
Parameters: dose 468.8 mg/kg, route intraperitoneal
condition_parameters: in vivo, read-out: Activity
property_label: survival at 336 h
Please state the number and follow it with the unit.

Q: Specify survival at 336 h for CC(C)=CCC/C(C)=C/CC/C(C)=C/CSc1ccccc1C(=O)N1CCN(CCOc2no[n+]([O-])c2S(=O)(=O)c2ccccc2)CC1 and stop.
Ans: 60%

* * *

protocol_text: Acute toxicity in KM mouse assessed as survival rate at 585.9 mg/kg, ip measured up to 14 days
Format: organism-based
Design: dose 585.9 mg/kg, route intraperitoneal
condition_parameters: in vivo, read-out: Activity
property_label: survival at 336 h (%)
# output: bare number, implied unit %

Q: Supply recorded survival at 336 h for CC(C)=CCC/C(C)=C/CC/C(C)=C/CSc1ccccc1C(=O)N1CCN(CCOc2no[n+]([O-])c2S(=O)(=O)c2ccccc2)CC1 here.
Ans: 20
